- protocol: NCI Yeast Anticancer Drug Screen. Data for the bub3 strain (AID 167)
- cond: S. cerevisiae bub3 mutant strain, at 5.0 µM (retest, dose inferred, filed as 0.5)
Compounds without any hit were thinned out: in the full panel of roughly 79,000, 15% have a hit. The source made the active and inactive calls. Cut-off read from the data, not from the text of the source: active = growth inhibition above about 70%; inactive = the rest.
Possible outcomes: active, inactive

>>> class_name("[CH3][Sn]([CH3])([Cl])[c]1cc[c]([Sn]([CH3])([CH3])[Cl])cc1")
"inactive"
>>> class_name("CCC[CH2][Pb]([CH2]CCC)([O]C(C)=O)[O]C(C)=O")
"active"
>>> class_name("O=P(c1ccccc1)(c1ccccc1)c1ccccc1.O=P(c1ccccc1)(c1ccccc1)c1ccccc1.S=C=[N][Sn]([N]=C=S)([N]=C=S)[c]1ccccc1")
"inactive"
>>> class_name("Oc1ccc2nc3ccccc3nc2c1")
"inactive"
>>> class_name("O=c1c[n+](-c2ccc[nH+]c2)[nH]o1.[Cl][Hg][Cl]")
"active"

* * *

- protocol: NCI Yeast Anticancer Drug Screen. Data for the mlh1 rad18 strain (AID 175)
- cond: S. cerevisiae mlh1 rad18 strain growth inhibition; at 50.0 µM (retest, dose inferred, filed as 5.0); stronger effect = higher value
About 79,000 compounds went through this panel and 15% of them were active in at least one assay; those are over-represented in the sample as a whole.
measured-quantity: growth inhibition (%)

>>> measured_value("[C-]#[O+].[C-]#[O+].[Ir].[O-]c1ccc2ccccc2c1N=Nc1ccccc1")
-18
>>> measured_value("CC(=O)[CH-]C(=O)c1ccccc1.CC(=O)[CH-]C(=O)c1ccccc1.C[C@]12CCC(=O)C=C1CC[C@@H]1C2CC[C@@]2(C)C1CC[C@]2(C)[O-].C[C@]12CCC(=O)C=C1CC[C@@H]1C2CC[C@@]2(C)C1CC[C@]2(C)[O-].Cl.[Ti+4] (stereo not given in full)")
90
>>> measured_value("O=C1c2ccccc2-c2cccc3cccc1c23")
-39
>>> measured_value("CNCC(O)c1cn(C)c2ccccc12 (stereo not given)")
-2
>>> measured_value("CCOP(=O)(OCC)Oc1ccc([N+](=O)[O-])cc1")
4

* * *

- protocol: NCI Yeast Anticancer Drug Screen. Data for the mgt1 strain (AID 153)
- cond: S. cerevisiae mgt1 mutant growth inhibition; at 100.0 µM; stronger effect = higher value
Compounds without any hit were thinned out: in the full panel of roughly 79,000, 15% have a hit.
Item-by-item account of growth inhibition
measured-quantity: growth inhibition (%)

>>> measured_value("CS(=O)(=O)OCCN(CCOS(C)(=O)=O)c1ccc(C=O)cc1")
78
>>> measured_value("O=P(CCCCP(=O)(c1ccccc1)c1ccccc1)(c1ccccc1)c1ccccc1.[Cl][Sn]([Cl])([c]1ccccc1)[c]1ccccc1")
97
>>> measured_value("CO[C@H](/C(C)=C/C=C/C(C)=C/c1coc(C)n1)[C@H](C)[C@H]1C[C@@H](O)[C@@]2(C)O[C@H]2/C=C/[C@@H](C)[C@@H]2C[C@@H](CC(=O)O2)C[C@H]2O[C@@H]2C(=O)O1")
94
>>> measured_value("O=C1C=CC(=O)C1(Br)Br")
99
>>> measured_value("CCC1(O)C(=O)OCc2c1cc1n(c2=O)Cc2cc3ccccc3nc2-1 (stereo not drawn)")
10
>>> measured_value("C[C@@]12CCC(=O)C=C1CC[C@H]1C2=CC[C@]2(C)C1CC[C@@]2(C)O (stereo partly drawn)")
96
>>> measured_value("Cc1c(N)nc([C@H](CC(N)=O)NC[C@H](N)C(N)=O)nc1C(=O)N[C@H](C(=O)N[C@H](C)[C@@H](O)[C@H](C)C(=O)N[C@H](C(=O)NCCc1nc(-c2nc(C(=O)NCCC[S+](C)C)cs2)cs1)[C@@H](C)O)C(OC1OC(CO)C(O)C(O)C1OC1OC(CO)C(O)C(OC(N)=O)C1O)c1cnc[nH]1 (stereo partly drawn)")
91
>>> measured_value("O=c1oc2ccccc2c(O)c1C(c1ccc2c(c1)Cc1ccccc1-2)c1c(O)c2ccccc2oc1=O")
97
>>> measured_value("CC(Cc1ccccc1)N(C)Cc1nc(C2CCC([N+](=O)[O-])O2)no1 (stereo not drawn)")
49
>>> measured_value("OCC(O)C(O)CO (stereo not drawn) (tested in a mixture with another compound)")
0
>>> measured_value("N#Cc1cc(N(CCCl)CCCl)c([N+](=O)[O-])cc1[N+](=O)[O-]")
87
>>> measured_value("COc1ccc(OC)c(/C=C/[N+](=O)[O-])c1")
100
>>> measured_value("O=[N+]([O-])c1ccc(N2CCC(CCCC3CCN(c4ccc([N+](=O)[O-])cc4[N+](=O)[O-])CC3)CC2)c([N+](=O)[O-])c1")
77
>>> measured_value("C/C(=N\\N=C(N)N)C(CN1CCOCC1)C(c1ccccc1)c1c(O)c2ccccc2oc1=O (stereo not drawn)")
48
>>> measured_value("CC[PH+](CC)CC.CC[PH+](CC)CC.[Au]")
98
>>> measured_value("O=C(O)CCCc1cc(I)c(N(CCCl)CCCl)c(I)c1")
97
>>> measured_value("CCOC(=O)C1=C(C(=O)OCC)C2(c3ccccc3)N(O1)c1ccccc1C2(C)C (stereo not drawn)")
78
>>> measured_value("CC1=C(CO)C2=C(C)C3(CC3)[C@@](C)(O)C(=O)C2=C1")
0

* * *

- protocol: NCI Yeast Anticancer Drug Screen. Data for the cln2 rad14 strain (AID 165);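 note: 0% = growth equal to vehicle treated cultures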
- cond: S. cerevisiae cln2 rad14 strain, at 50.0 µM (retest, dose inferred, filed as 5.0), stronger effect = higher value
The panel holds about 79,000 compounds, 15% with a hit somewhere; the sample as a whole holds those more often.
measured-quantity: growth inhibition (%)

>>> measured_value("COC(=O)CCCCCCCCC[CH2][Hg][Cl]")
98
>>> measured_value("O=C(Nc1cc(Cl)ccc1Cl)C(Cl)(Cl)Cl")
-6
>>> measured_value("ClCCN(CCCl)CCN1c2ccccc2Sc2ccc(Cl)cc21")
49
>>> measured_value("N#CC(C#N)=Cc1ccc(C#N)cc1")
-7
>>> measured_value("[CH3][Sn]([Br])([Br])[CH2]CCCBr")
93
>>> measured_value("COC(=O)c1c(C)ccc2c(O)c3c(cc12)C(=O)c1c2c(cc(O)c1C3=O)C1(C)OC(C)(O2)C(O)C(N(C)C)C1O (configuration not stated)")
97
>>> measured_value("CCCCCCCCCCCCN=C(N)N")
98
>>> measured_value("c1ccc2c(NCCCCCCCCNc3c4ccccc4nc4ccccc34)c3ccccc3nc2c1")
83
>>> measured_value("CC(=O)OCC12CCC(C)=CC1OC1C3(O)N=C(C)OC3C2(C)C12CO2 (configuration not stated)")
64
>>> measured_value("O=C1c2ccc3ccccc3c2CCC1N1CCCCC1 (configuration not stated)")
97
>>> measured_value("ClCc1nc2ccccc2[nH]1")
77
>>> measured_value("Oc1cccc2cccnc12 (tested in a mixture with another compound)")
-10
>>> measured_value("CCC(C)(C)c1ccc(OP(=S)(S)Oc2ccc(C(C)(C)CC)cc2)cc1")
90
>>> measured_value("c1ccc(NC2=NCCN2)nc1")
49
>>> measured_value("O=C1C(=O)c2ccccc2-c2ccccc21.O=C1C(=O)c2ccccc2-c2ccccc21.[Hg]")
97
>>> measured_value("Fc1ccc(NP(=S)(Nc2ccc(F)cc2F)Nc2ccc(F)cc2F)c(F)c1")
99
>>> measured_value("CCC[CH2][Pb]([Cl])([CH2]CCC)[CH2]CCC")
98
>>> measured_value("CC1CCC2(OC1)OC1CC3C4CC=C5CC(OC6OC(CO)C(OC7OC(C)C(OC8OC(C)C(O)C(O)C8O)C(O)C7O)C(O)C6OC6OC(C)C(O)C(O)C6O)CCC5(C)C4CCC3(C)C1C2C (configuration not stated)")
95
>>> measured_value("COC1=CC(C)(C)C=C([Se][Se]C2=CC(C)(C)C=C(OC)C2=O)C1=O")
75
>>> measured_value("CCC[CH2][Sn]1([CH2]CCC)[O]CC(CN2CCCC2)[O]1 (configuration not stated)")
95
>>> measured_value("CNCC(O)c1ccc(O)c(O)c1.[Pt].c1ccc([PH+](c2ccccc2)c2ccccc2)cc1.c1ccc([PH+](c2ccccc2)c2ccccc2)cc1")
99
>>> measured_value("O=P1(NCCCl)OC(c2ccccc2)=CCN1CCCl (configuration not stated)")
5

* * *

In this section, each of the molecules is paired with its reported growth inhibition.
- protocol: NCI Yeast Anticancer Drug Screen. Data for the bub3 strain (AID 167)
- cond: S. cerevisiae bub3 mutant strain, at 3.7 µM, stronger effect = higher value
About 79,000 compounds went through this panel and 15% of them were active in at least one assay; those are over-represented in the sample as a whole.
measured-quantity: growth inhibition (%)

>>> measured_value("c1c(N2CCOCC2)ssc1=[N+]1CCOCC1")
0
>>> measured_value("CC(=O)[O-].O=C([CH-]C(=O)c1ccccc1)c1ccccc1.O=C([CH-]C(=O)c1ccccc1)c1ccccc1.[Sm+3]")
19
>>> measured_value("CSc1ccccc1[As](C)C")
13
>>> measured_value("CO[C@H](/C(C)=C/C=C/C(C)=C/c1coc(C)n1)[C@H](C)[C@H]1C[C@@H](O)[C@@]2(C)O[C@H]2/C=C/[C@@H](C)[C@@H]2C[C@@H](CC(=O)O2)C[C@H]2O[C@@H]2C(=O)O1")
-10
>>> measured_value("COC(=O)C(F)C(Br)C(=O)OC (stereo unspecified)")
94
>>> measured_value("O=[N+]([O-])c1cc([As](Br)c2ccc(O)c([N+](=O)[O-])c2)ccc1O")
98
>>> measured_value("CC1=C[C@H]2O[C@@H]3C[C@H]4OC(=O)/C=C\\C=C\\C(C(C)O)OCC(O)C(C)CC(=O)OC[C@@]2(C[C@@H]1O)[C@]4(C)[C@@]31CO1 (stereo partly specified)")
4
>>> measured_value("C=CC[N+]12CN3CN(CN(C3)C1)C2")
12
>>> measured_value("CNC(=O)ON(C(C)=O)C(=O)NC")
4
>>> measured_value("COc1cc(C2c3cc4c(cc3[C@@H](Nc3ccc(N)cc3)C3COC(=O)[C@H]23)OCO4)cc(OC)c1O (stereo partly specified)")
55
>>> measured_value("Nc1ccccc1C(=O)OCCc1ccccc1")
0
>>> measured_value("CC[C@@]1(O)C[C@H](OC2CC(N(C)C)C(O)C(C)O2)c2c(O)c3c(c(O)c2[C@H]1OC1CC(N(C)C)C(O)C(C)O1)C(=O)c1cccc(O)c1C3=O (stereo partly specified)")
12
>>> measured_value("CCOC(=O)C1C2c3ccccc3C(c3ccccc32)C1C(=O)OCC (stereo unspecified)")
8
>>> measured_value("CCCCCCCCCCCCCCCCP(=O)(O)OCC(N)C(=O)O (stereo unspecified)")
1
>>> measured_value("C=C[C@H]1CN2CC[C@H]1C[C@@H]2[C@@H](O)c1ccnc2ccccc12")
-6
>>> measured_value("CNC(=O)OCC1C2=C(C(=O)C(C)=C(N)C2=O)N2CC3C(N3C)C12OC (stereo unspecified)")
-4
>>> measured_value("Nc1nnc(N)n1-n1c(N)nnc1N")
-1
>>> measured_value("COC(=O)C1c2cc3c(c(O)c2C(O)CC1(C)O)C(=O)c1c(O)cc2c(c1C3=O)OC1OC2(C)C(O)C(N(C)C)C1O (stereo unspecified)")
3
>>> measured_value("CCOP(=O)(CC(C)P(=O)(OCC)OCC)OCC.C[CH2][Sn]([Cl])([Cl])[CH2]C (stereo unspecified)")
1
>>> measured_value("CC1CN1C1=C(Cl)C(=O)C(N2CC2C)=C(Cl)C1=O (stereo unspecified)")
15
>>> measured_value("CCOC(=O)C1([Se]c2ccccc2)CCCC1=O (stereo unspecified)")
0
